Measured IPOHE preemergence herbicidal rating accompanies every entry in the list below.
- Test system: IPOHE (Morningglory, Ivyleaf)
- ASSAY PROTOCOL: Preemergence herbicidal evaluation
- Format: in vivo, Ipomoea hederacea
- CONDITION PARAMETERS: rate 0.2500 kg/ha; rated 4-5 weeks after treatment
Give the figure only, with no unit attached.

CCOC(=O)CN1C(=O)C(F)SC1=Nc1cc(-n2c(=O)cc(C(F)(F)F)n(C)c2=O)c(F)cc1Cl (stereo not drawn) | 9.0

Endpoint output: IPOHE preemergence herbicidal rating of CCOC(=O)CN1C(=O)C(C)SC1=Nc1cc(-n2c(=O)cc(C(F)(F)F)n(C)c2=O)c(F)cc1Cl (stereo not drawn) . Value?
9.0

Endpoint output: IPOHE preemergence herbicidal rating of "CCOC(=O)CN1C(=O)C(=C(C)C)S/C1=N/c1cc(-n2c(=O)cc(C(F)(F)F)n(C)c2=O)c(F)cc1Cl" . Value?
2.0
